Where these numbers come from: the supplement of paper PMC10567573

B1: RTP4 (parent)
chain: AFGWFRCSSCQRSWASAQVQILCH

variants of: B1; test: protein stability index of a GFP-peptide fusion (GPS, HEK-293T) (PSI 1-6); higher = more stable; conditions: c terminus: a fixed tail appended;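 also: lentivirally expressed fusions sorted by FACS into six bins by GFP to DsRed ratio, PSI derived from sequencing read proportions per bin multiplied by bin number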
Mark 1.0 for reported protein stability index of 3 or greater; mark 0.0 for anything smaller.

entry.sequence	cat
AFGWFRCSSCQRSWASAQVQALCH	0.0
AFGWFYCSSCQRSWASAQVQILCH	0.0
AFGWFRCSSCQRSWASAQVQLLCH	0.0
AFGWFRCSSCQRSWAIAQVQILCH	0.0
AFGWFRCSSCQRSWASAQVQIGCH	0.0
AFGWFRCSSCQWSWASAQVQILCH	0.0
AFGWFRCSSCQRSWASAMVQILCH	1.0
AFGWFRCSSCQRSWASPQVQILCH	0.0
AFGWFRCSSCQRSWAHAQVQILCH	1.0
